The following molecules are shown together with reported melting point values.

A selection of reference data follows.
molecule	melting point
COc1ccccc1CP(C)(=O)C1CCCCC1 (stereo unspecified)	108 to 110 °C
CCCCNC1CC(C)(C)N(c2nc(N3CCOCC3)nc(N3CCOCC3)n2)C(C)(C)C1	82 to 87 °C

Answer with the recorded melting point of CCCn1nc(C(F)(F)CCC)nc1Cc1ccc(-c2ccccc2-c2nnn[nH]2)nc1 only.
140 to 141 °C

Answer with the recorded melting point of CCOC(=O)C1=C(N)NC(C)=C(C(=O)OC)C1c1cccc([N+](=O)[O-])c1 (stereo unspecified) only.
124 °C

Answer with the recorded melting point of COC(=O)c1cccc2c(C=O)c[nH]c12 only.
153 to 154 °C

Answer with the recorded melting point of CCCN1CCCC(NC(=O)C(Cc2ccc(OCc3ccccc3)cc2)NC(=O)C(CC(C)C)N(C)Cc2ccc(N(C)C)cc2)C1 (stereo unspecified) only.
131 to 133 °C

----------
outcome measure: melting point

A selection of reference data follows.
compound	melting point
CC1CN(C(P(=O)(O)O)P(=O)(O)O)CC(C)S1 (stereo not drawn)	219 to 220 °C
O=C(c1ccccc1)c1cc(Cl)ccc1CCCN1C(=O)c2ccccc2C1=O	94 to 97 °C

# evaluate next
Answer with the recorded melting point of CC(C)C1CCC(C(=O)N[C@H](Cc2ccccc2)C(=O)O)CC1 (stereo partly drawn) only.
129 to 130 °C

----------
The following compounds are shown together with reported melting point values.

Answer with the recorded melting point of CCNS(=O)(=O)c1ccc(C2=C(c3cccc(F)c3)C(=O)C(C)(C)O2)cc1 only.
113 to 114 °C

Answer with the recorded melting point of CCCn1cc2c(C3C(=O)Nc4ccc(Br)cc43)nc(NCc3cccnc3)nc2n1 (stereo unspecified) only.
277 to 281 °C

Answer with the recorded melting point of CCc1ccc2ccc(N)nc2n1 only.
170 to 172 °C

Answer with the recorded melting point of CNC(=O)OCc1c(COC(=O)NC)c2n(c1C)-c1ccccc1C2 only.
86 to 88 °C

Answer with the recorded melting point of COc1ccccc1Oc1c(OC)nn(C)c1NS(=O)(=O)c1ccc(C(C)(C)C)cc1 only.
188 °C

Answer with the recorded melting point of CCCn1ncc2c(=O)[nH]c(-c3cc(Br)ccc3OCC)nc21 only.
172 to 173 °C

----------
The following molecules are shown together with reported melting point values.

A selection of reference data follows.
molecule	melting point
CSc1ccc(C(N)=S)cc1	176 to 178 °C
CC(CS(=O)(=O)c1ccccc1)C1CCC2C3CC=C4CC(O)CC(O)C4(C)C3CCC12C (configuration not stated)	214 °C
CN1C(=O)C(NC(=O)Nc2ccc(F)cc2)C(=O)N(C23CC4CC(CC(C4)C2)C3)c2ccccc21 (configuration not stated)	239 to 241 °C
C=CCn1c(C)nc2c(O)c(C(=O)[C@@H]3OC(C)(C)O[C@H]3c3ccccc3)ccc21	123 °C
CCOC(=O)c1c(C)cc(C(=O)O)c(NC=O)c1C	144 to 146 °C
CCCc1nc2c(N)nc(C)c(C)c2n1CCCCN(O)C(C)=O	164 to 166 °C
Cc1c(C(=O)Nc2ccc(N3CCC(N4CCOCC4)CC3)c(Br)c2)cnn1-c1ccc(C(F)(F)F)cc1	220 to 230 °C
CC1(C)CN=C2N(C1)c1ccc(C#N)cc1C21OCCCO1	178 to 184 °C
Cc1c(C)c2c(c(C)c1NC(=O)CCCOCc1ccccc1)C(c1ccc(C(C)C)cc1)CO2 (configuration not stated)	85 to 86 °C
Cc1cccc(-c2cc(O)c(Sc3ccccc3C(C)C)c(=O)o2)c1	161 to 162 °C

Answer with the recorded melting point of COC(=O)Cc1nc(-c2ccc(OC)c(OC)c2)c2cc(Cl)ccc2n1 only.
144 to 145 °C

Answer with the recorded melting point of CCOC(Cc1ccc(OCCN(C)c2nc3ccccc3o2)cc1)C(=O)O (configuration not stated) only.
109 to 110 °C

----------
The following compounds are shown together with reported melting point values.

A selection of reference data follows.
molecular string	melting point
Cn1c(=O)c(Oc2ccc(F)cc2F)cc2cnc(S(C)(=O)=O)nc21	177 to 178 °C
Cc1nc2c(n1-c1ccccc1)C(=O)c1ccccc1C2=O	242 °C

# evaluate next
Answer with the recorded melting point of Cc1nc(NCc2ccccc2C)c2nc(-c3ccccc3)cc-2[nH]1 only.
277 to 281 °C

----------
outcome measure: melting point

compound	measurement
CCSc1nnc(-c2ccc(OC)cc2)c(-c2ccc(OC)cc2)n1	118 to 120 °C
CCc1nc(C(=O)O)c(C(=O)O)[nH]1	265 to 268 °C

Answer with the recorded melting point of O=[N+]([O-])c1c(Cl)nc(C2CC2)nc1Cl only.
50 to 52 °C

Answer with the recorded melting point of CC(CCCC(C)(C)O)C1CCC2C3CC=C4CCCC(O)C4(C)C3CCC12C (stereo not drawn) only.
127 to 128 °C

Answer with the recorded melting point of Cc1cn(-c2ccc3nnc4c(C)nc(CC(C)C)n4c3c2)c(CC(C)C)n1 only.
134 to 136 °C

----------
outcome measure: melting point

A selection of reference data follows.
compound	melting point
O=C(O)COc1ccc2c(=O)c3cc(Cl)ccc3oc2c1Cl	262 to 263 °C
O=[N+]([O-])c1ccc2c(c1)OC(CO)(CO)O2	111 to 113 °C
CC(=O)Oc1ccc(-c2cc3ccc(OC(C)=O)cc3s2)cc1	208 to 210 °C
COC(=O)c1ccc(C(=O)NCc2cccc(O)c2)cc1C	100 to 103 °C
CCOC(=O)c1cc2cc(-c3ccc(NC(C)=O)cc3)ccc2o1	174 to 176 °C
CCCC(CC(=O)NC(=O)OC(C)(C)C)Nc1ccc(Cl)cc1 (stereo not drawn)	76 to 77 °C
Cn1nc(-c2cccc(-n3ncc4cc(C(C)(C)C)cc(F)c4c3=O)c2CO)cc(Nc2cnc(C(F)(F)F)cn2)c1=O	250 to 254 °C
CS(=O)(=O)c1nc(Cl)cc(Nc2ccc(C(F)(F)F)cc2)n1	184 to 186 °C

Answer with the recorded melting point of CCCn1c(=O)c2[nH]c(C3CCOC3)nc2n(CCC)c1=O (stereo not drawn) only.
177 to 178 °C

Answer with the recorded melting point of ClCCCCn1c2c(c3ccccc31)CCSc1ccccc1-2 only.
75 °C

Answer with the recorded melting point of CC(C)OC(=O)n1c(Cc2ccccc2)noc1=O only.
80 °C

Answer with the recorded melting point of CCn1cc(C(F)(F)F)c(=O)[nH]c1=O only.
259 to 260 °C

Answer with the recorded melting point of O=c1ccc(S(=O)(=O)c2cc3cc(Cl)cc(Cl)c3[nH]2)n[nH]1 only.
> 250 °C

----------
The following compounds are shown together with reported melting point values.

A selection of reference data follows.
molecular string	melting point
CCOC(=O)c1ncn2c1CN(C)C(=O)c1c(Cl)cccc1-2	229 to 230 °C
COc1ccc2c(c1)c(OC(C)C)c(C(N)=O)n2C	147 to 149 °C

Answer with the recorded melting point of CC(C)c1ncc(C(=O)O)nc1C(C)C only.
128 to 130 °C

----------
The following compounds are shown together with reported melting point values.

compound	outcome measure	measurement
Nc1cccc(NC(=O)C(F)(F)C(F)(F)F)c1	melting point	86 to 88 °C

Answer with the recorded melting point of CCCCCC(C)NC1=NS(=O)(=O)c2sc(Cl)cc2N1 (configuration not stated) only.
158 to 162 °C

Answer with the recorded melting point of CC(C)(C)CNc1cc(Cl)nc(NCC(C)(C)C)n1 only.
95 to 98 °C

Answer with the recorded melting point of CC(CCN(C)c1ccc(Cl)cc1)NCC(O)c1ccc(O)c(C(N)=O)c1 (configuration not stated) only.
127 to 129 °C

Answer with the recorded melting point of CC1CN(c2c(Cl)nc3ccc(F)cc3c2C(N)=O)CC(C)N1 (configuration not stated) only.
169 to 170 °C

Answer with the recorded melting point of CCc1cccc(CNC[C@@H](O)[C@H](Cc2cc(F)cc(F)c2)NC(=O)c2ccc3ccncc3c2)c1 only.
142 to 143 °C

----------
The following compounds are shown together with reported melting point values.

A selection of reference data follows.
compound	melting point
OC(c1ccccc1)(C1CC1)C(c1cccc(Cl)c1)n1ccnc1 (stereo not given)	140 °C
O=[N+]([O-])c1ccc(C=C/C=C/c2ccc(Cl)c(Cl)c2)cc1	125 to 135 °C
CCOC(=O)c1cnn(-c2ccccc2)c1NC(=O)Nc1ccccc1	184 to 185 °C
Cc1oc(-c2ccccc2)nc1COc1ccc(CON=C(CCCCCC(=O)O)c2ccccc2)cc1	84 to 85 °C
COc1cc2c(c(Cl)c1Cl)C(=O)C(C)(c1ccccc1)C2c1ccccc1 (stereo not given)	197 to 207 °C

# evaluate next
Answer with the recorded melting point of O=c1[nH]c2ccccc2cc1-c1csc(NS(=O)(=O)c2ccc(Cl)cc2)n1 only.
> 300 °C
